Literature roundup of Serine/threonine-protein kinase PLK1 (Homo sapiens) data, read-out IC50.
PROPERTY NAME: IC50

# MOLECULE, EXPERIMENTAL VALUE
data = [
    ("N[C@H]1CCCC[C@@H]1NC(=O)c1ccc(-c2c(F)cnc3[nH]c4cnc(-c5cccnc5)cc4c23)cc1", "100 to 1000 nM"),
    ("CCC1C(=O)Nc2cnc(-n3ccnc3-c3ccccc3)nc2N1NC(=O)OC(C)(C)C (stereo not shown)", "> 50000 nM"),
    ("Nc1cccc(-c2ccnc3[nH]cc(C(=O)c4cccc(Cl)c4Cl)c23)c1", "≤ 10000 nM"),
    ("CN1C[C@@H]2CCN(C(=O)c3ccc(-c4c(F)cnc5[nH]c6cnc(-c7cccnc7)cc6c45)cc3)[C@@H]2C1", "100 to 1000 nM"),
    ("CC[C@@H]1C(=O)N(C)c2cnc(Nc3ccc(C(=O)N[C@H]4CC[C@@H](CCC(=O)N[C@@H](CC(C)C)C(=O)O)CC4)cc3OC)nc2N1C1CCCC1", "< 100 nM"),
    ("CN1CCC(COc2ccc3ncn(-c4nc(-c5cccc(Cl)c5)c(C(N)=O)s4)c3c2)CC1", "14 nM"),
    ("CC[C@@H]1C(=O)N(C)c2cnc(Nc3c(F)cc(/C=C/CCCC(=O)N[C@@H](CC(C)C)C(=O)OC4CCCC4)cc3F)nc2N1C1CCCC1", "100 to 500 nM"),
]

====

Literature roundup of Serine/threonine-protein kinase PLK1 (Homo sapiens, UniProt P53350) data, read-out IC50.

# MOLECULE, UNITS OF MEASURE, INEQUALITY SYMBOL, IC50
measured = [
    ("Cc1ccc(F)c(S(=O)(=O)NCCC#Cc2cnc3nc2NCCCNS(=O)(=O)c2cccc(c2)N3)c1", "nM", ">", 10000),
    ("CC[C@]12COCCN1c1nc(-n3ccnc3-c3ccccc3)ncc1N(C)C2=O (single isomer, unassigned)", "nM", ">", 50000),
    ("C[C@H](Nc1ncc(F)c(-c2cnc3c(Cl)cccn23)n1)c1ccc([C@H](O)CNC2(C)CCCC2)cc1", "nM", "=", 2.2),
    ("COc1cc(C(=O)NC2CCN(C)CC2)ccc1Nc1ncc2c(n1)N(C1CCCC1)C(C)C(C)C(=O)N2C (racemic)", "nM", "<", 500),
    ("COCCOc1cc2ncn(-c3nc(-c4ccccc4)c(C(=O)O)s3)c2cc1OCCOC", "nM", "=", 819),
    ("COc1cc2ncn(-c3nc(-c4cccc(Cl)c4)c(C(=O)Nc4cc[nH]c(=O)n4)s3)c2cc1OC", "nM", "=", 4430),
    ("O=C1Nc2c(Cl)cccc2/C1=C\\c1ccc2cn[nH]c2c1", "nM", ">", 50000),
    ("CN1CCC(NCc2ccc3ncn(-c4nc(-c5cccc(Cl)c5)c(C(N)=O)s4)c3c2)CC1", "nM", "=", 443),
]

====

Literature roundup of Serine/threonine-protein kinase PLK1 (Homo sapiens) data, read-out IC50.

# COMPOUND, IC50
measured = [
    ("CS(=O)(=O)Nc1ccc2c(c1)/C(=C\\c1ccc3cn[nH]c3c1)C(=O)N2", "< 5 µM"),
    ("CC[C@@H]1C(=O)N(C)c2cnc(-n3ccc(C(=O)NC)n3)nc2N1C1CCCC1", "1 to 10 µM"),
    ("CC(C)(C)OC(=O)Nc1ccc2c(c1)/C(=C\\c1ccc3cn[nH]c3c1)C(=O)N2", "5 to 50 µM"),
    ("CC(COc1ccc(-c2c(F)cnc3[nH]c4cnc(-c5cccnc5)cc4c23)cc1)CN(C)C (stereo not shown)", "0.1 to 1 µM"),
    ("CC[C@@H]1C(=O)N(C)c2cnc(-n3ccnc3-c3cccnn3)nc2N1C(C)C", "10 to 50 µM"),
    ("CC1CCCCN1CCNC(=O)c1ccc(-c2c(F)cnc3[nH]c4cnc(-c5cccnc5)cc4c23)cc1 (stereo not shown)", "0.1 to 1 µM"),
    ("COc1cc(C(=O)NC2CCN(C)CC2)ccc1Nc1ncc2c(n1)N(c1ccccc1)CC(C)C(=O)N2C (racemic)", "0.5 to 5 µM"),
    ("CC(C)NC(=O)Nc1ccc2c(c1)/C(=C\\c1ccc3cn[nH]c3c1)C(=O)N2", "5 to 50 µM"),
    ("CC[C@@H]1C(=O)N(C)c2ccc(N3CCc4cc(C(=O)NC5CCN(C)CC5)ccc43)nc2N1C1CCCC1", "> 10 µM"),
    ("COc1cc2ncn(-c3nc(-c4cccnc4)c(C(=O)O)s3)c2cc1OC", "4.41 µM"),
    ("CC1CN(C2CCCC2)c2nc(Nc3cccc(C(=O)Nc4cccnc4)c3)ncc2N(C)C1=O (racemic)", "< 0.5 µM"),
    ("CN(C)CCNC(=O)c1ccc(-c2c(F)cnc3[nH]c4cnc(-c5cnn(C)c5)cc4c23)cc1", "1 to 5 µM"),
    ("CC1CN(C2CCCC2)c2nc(Nc3cccc(C(=O)NC4CCOCC4)c3)ncc2N(C)C1=O (racemic)", "0.5 to 5 µM"),
    ("COc1cc(C(=O)NC2CCN(C)CC2)ccc1Nc1ncc2c(n1)N(C1CCCC1C)CCC(=O)N2C (racemic)", "< 0.5 µM"),
    ("COc1ccc(CSc2nnc(-c3ccnc(N)c3)o2)cc1F", "> 10 µM"),
    ("CC[C@@H]1C(=O)N(C)c2cnc(Nc3ccc(C(=O)NC4CCN(CCCC(=O)N[C@H](C(=O)O)c5ccccc5)CC4)cc3OC)nc2N1C1CCCC1", "< 0.1 µM"),
]
